Assay: Direct solubilization of retinoids by cyclodextrins and their derivatives
Type: physicochemical
Details: physiological buffered saline, γ-cyclodextrin, 50 mg/ml; read-out: Solubility of retinoid in physiological buffered saline
property-measured: solubility (µg/mL)
Provide the reading as a plain figure in µg/mL.

| molecule | property-measured | unit | test-result |
| --- | --- | --- | --- |
| CC1=C(/C=C/C(C)=C/C=C/C(C)=C/C(=O)O)C(C)(C)CCC1 [retinoic acid] | solubility | µg/mL | 130 |

// next entry
QUERY: Give the value of solubility reported for the following: CC1=C(/C=C/C(C)=C/C=C/C(C)=C/C=O)C(C)(C)CCC1 [retinal]
RESULT: 1

* * *

Assay: Direct solubilization of retinoids by cyclodextrins and their derivatives
Assay type: physicochemical
Conditions: physiological buffered saline, solubilization agent: none; read-out: Solubility of retinoid in physiological buffered saline
property-measured: solubility (µg/mL)
Provide the reading as a plain figure in µg/mL.

QUERY: Give the value of solubility reported for the following: CC1=C(/C=C/C(C)=C/C=C/C(C)=C/C(=O)O)C(C)(C)CCC1 [retinoic acid]
RESULT: 20

* * *

Assay: Direct solubilization of retinoids by cyclodextrins and their derivatives
Type: physicochemical
Conditions: buffered saline with β-cyclodextrin, β-cyclodextrin, 17 mg/ml; read-out: Solubility of retinoid in physiological buffered saline
solubility for assorted compounds
Provide the reading as a plain figure in mg/mL.

| compound | solubility, mg/mL |
| --- | --- |
| CC1=C(/C=C/C(C)=C/C=C/C(C)=C/C=O)C(C)(C)CCC1 [retinal] | 0.002 |

QUERY: Give the value of solubility reported for the following: CC1=C(/C=C/C(C)=C/C=C/C(C)=C/C(=O)O)C(C)(C)CCC1 [retinoic acid]
RESULT: 2

* * *

Experiment: Direct solubilization of retinoids by cyclodextrins and their derivatives
Assay type: physicochemical
Details: physiological buffered saline, tetradecakis-2,6-O-methyl-β-cyclodextrin, 50 mg/ml; read-out: Solubility of retinoid in physiological buffered saline
property-measured: solubility (µg/mL)
Provide the reading as a plain figure in µg/mL.

| compound | solubility [µg/mL] |
| --- | --- |
| CC1=C(/C=C/C(C)=C/C=C/C(C)=C/C=O)C(C)(C)CCC1 [retinal] | 570 |

// next entry
QUERY: Give the value of solubility reported for the following: CC1=C(/C=C/C(C)=C/C=C/C(C)=C/C(=O)O)C(C)(C)CCC1 [retinoic acid]
RESULT: 460

* * *

Experiment: in vitro
Conditions: mouse, s9
property-measured: MCC

QUERY: Give the value of MCC reported for the following: CC1=C(/C=C/C(C)=C/C=C/C(C)=C/C=O)C(C)(C)CCC1
RESULT: ≥ 10 µM

* * *

Experiment: physchem
Conditions: isotonic buffered saline
property-measured: solubility

QUERY: Give the value of solubility reported for the following: CC1=C(/C=C/C(C)=C/C=C/C(C)=C/C=O)C(C)(C)CCC1
RESULT: < 0.01 µg/mL
